src = PubChem BioAssay AID2060605

Record form. Attribute: viability, T/C. Fill in for each entry.
Test system: 947758-054-R-J2-PDC spheroid growth, percent test/control;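 further: spheroids exposed to compounds for one week before readout; 100% = DMSO vehicle control wells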
Experiment: Anticancer human tumor 947758-054-R-J2-PDC patient-derived colon adenocarcinoma cell line growth inhibition [CLK]
Settings: second compound 10 µM; first compound 3.16 µM; stronger effect = lower value; spheroids with HUVEC and MSC
Text: A high-throughput screen of multi-cell type tumor spheroids was designed to identify active combinations of […] and targeted small molecules. Complex spheroids include a stromal component modeled by human endothelial cells (HUVEC) and fibroblasts modeled by human mesenchymal stem cells (MSCs). […] Compounds. […] If the clinical Cmax for an agent had not been determined, the highest concentration tested was 10 microM. […]
One number for each entry, in %.

C=CC(=O)N1CCN(c2nc(=O)n(-c3c(C)ccnc3C(C)C)c3nc(-c4c(O)cccc4F)c(F)cc23)C(C)C1 (configuration not stated) + CN1CCN(c2cc(C(=O)Nc3cc4cc(-c5cnn(C)c5)ccc4cn3)ccn2)CC1 : 0.98

Shifting focus to the molecule that follows.
Quick note, viability, T/C for CC(=O)O[C@H]1C(=O)[C@@]2(C)[C@H]([C@H](OC(=O)c3ccccc3)[C@]3(O)C[C@H](OC(=O)[C@H](O)[C@@H](NC(=O)c4ccccc4)c4ccccc4)C(C)=C1C3(C)C)[C@]1(OC(C)=O)CO[C@@H]1C[C@@H]2O + CNC(=O)c1ccc(Nc2nc(OC3CCCC3)c3c(-c4ccc5nc(C)oc5c4)c[nH]c3n2)c(OC)c1 landed at 56.8
